Can you tell me viability, T/C for the items I'm about to list?
# System: 186277-243-T-J2-PDC complex spheroids, viability
# Method description: Anticancer human tumor 186277-243-T-J2-PDC patient-derived colon adenocarcinoma cell line growth inhibition [RAS]
# Run conditions: second compound 0.01 µM; first compound 0.316 µM; stronger effect = lower value
Give bare numbers, in %.

Sample records with viability, T/C:
Cc1nc(N2CCC3(CC2)COC(C)C3N)c(CO)nc1Sc1ccnc(N)c1Cl (configuration not stated) + C=CC(=O)N1CCN(c2nc(OCC3CCCN3C)nc3c(F)c(-c4nc(N)cc(C)c4C(F)(F)F)c(Cl)cc23)C(C)C1: 94.4
NC1c2ccccc2OC12CCN(c1cnc3c(N4CCCc5ncccc54)n[nH]c3n1)CC2 (configuration not stated) + C=CC(=O)N1CCN(c2nc(OCC3CCCN3C)nc3c(F)c(-c4nc(N)cc(C)c4C(F)(F)F)c(Cl)cc23)C(C)C1: 100
CCN1CCN(Cc2ccc(Nc3ncc(F)c(-c4cc(F)c5nc(C)n(C(C)C)c5c4)n3)nc2)CC1 + C=CC(=O)N1CCN(c2nc(OCC3CCCN3C)nc3c(F)c(-c4nc(N)cc(C)c4C(F)(F)F)c(Cl)cc23)C(C)C1: 121
CC(=O)OC12COC1CC(O)C1(C)C(=O)C(O)C3=C(C)C(OC(=O)C(O)C(NC(=O)OC(C)(C)C)c4ccccc4)CC(O)(C(OC(=O)c4ccccc4)C21)C3(C)C (configuration not stated) + C=CC(=O)N1CCN(c2nc(OCC3CCCN3C)nc3c(F)c(-c4nc(N)cc(C)c4C(F)(F)F)c(Cl)cc23)C(C)C1: 7.34

// input: 8 compounds below; output: viability, T/C for each
1. C[C@@H](NC(=O)c1ncnc(N)c1Cl)c1ncc(C(=O)Nc2cc(C(F)(F)F)c(Cl)cn2)s1 + C=CC(=O)N1CCN(c2nc(OCC3CCCN3C)nc3c(F)c(-c4nc(N)cc(C)c4C(F)(F)F)c(Cl)cc23)C(C)C1
2. CC(Nc1ccc2c(c1)OCCn1cc(N3C(=O)OCC3C(F)F)nc1-2)C(N)=O (configuration not stated) + C=CC(=O)N1CCN(c2nc(OCC3CCCN3C)nc3c(F)c(-c4nc(N)cc(C)c4C(F)(F)F)c(Cl)cc23)C(C)C1
3. Nc1ccn(C2OC(CO)C(O)C2(F)F)c(=O)n1 (configuration not stated) + C=CC(=O)N1CCN(c2nc(OCC3CCCN3C)nc3c(F)c(-c4nc(N)cc(C)c4C(F)(F)F)c(Cl)cc23)C(C)C1
4. C=CC(=O)Nc1cc(Nc2nccc(-c3cn(C)c4ccccc34)n2)c(OC)cc1N(C)CCN(C)C + C=CC(=O)N1CCN(c2nc(OCC3CCCN3C)nc3c(F)c(-c4nc(N)cc(C)c4C(F)(F)F)c(Cl)cc23)C(C)C1
5. CCC(CC)c1cc(NC2CCC(N)C2)n2nccc2n1 (configuration not stated) + C=CC(=O)N1CCN(c2nc(OCC3CCCN3C)nc3c(F)c(-c4nc(N)cc(C)c4C(F)(F)F)c(Cl)cc23)C(C)C1
6. CC(C)NCC(C(=O)N1CCN(c2ncnc3c2C(C)CC3O)CC1)c1ccc(Cl)cc1 (configuration not stated) + C=CC(=O)N1CCN(c2nc(OCC3CCCN3C)nc3c(F)c(-c4nc(N)cc(C)c4C(F)(F)F)c(Cl)cc23)C(C)C1
7. O=C(c1ccc(F)c(F)c1Nc1ccc(I)cc1F)N1CC(O)([C@@H]2CCCCN2)C1 + C=CC(=O)N1CCN(c2nc(OCC3CCCN3C)nc3c(F)c(-c4nc(N)cc(C)c4C(F)(F)F)c(Cl)cc23)C(C)C1
8. CC1(O)CCCC1n1c(=O)c(C(F)F)cc2cnc(NC3CCN(S(C)(=O)=O)CC3)nc21 (configuration not stated) + C=CC(=O)N1CCN(c2nc(OCC3CCCN3C)nc3c(F)c(-c4nc(N)cc(C)c4C(F)(F)F)c(Cl)cc23)C(C)C1

Found:
1: 114; 2: 57.3; 3: 9.07; 4: 107; 5: 76.2; 6: 101; 7: 11.9; 8: 93.5

----------
# Test system: 186277-243-T-J2-PDC complex spheroids, viability
# Method description: Anticancer human tumor 186277-243-T-J2-PDC cell line growth inhibition [RAS];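 further: spheroids exposed to compounds for 7 days before viability read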
# Run conditions: curve of first compound; second compound 0.316 µM
# Excerpt: RAS pathway inhibitors in Combinations in Complex Spheroids A high-throughput screen of multi-cell type tumor spheroids was designed to identify active combinations of RAS pathway inhibitors and targeted small molecules. Complex spheroids include a stromal component modeled by human endothelial cells (HUVEC) and fibroblasts modeled by human mesenchymal stem cells (MSCs). […] Compounds. […] If the clinical Cmax for an agent had not been determined, the highest concentration tested was 10 microM. […]
Can you tell me IC50 for the items I'm about to list?
Answers are plain numbers, in nM.

Nc1ccn(C2OC(CO)C(O)C2(F)F)c(=O)n1 (stereo not given) + C=CC(=O)N1CCN(c2nc(OCC3CCCN3C)nc3c(F)c(-c4nc(N)cc(C)c4C(F)(F)F)c(Cl)cc23)C(C)C1: 4.45

// moving on: another record for IC50
Entry under test: CCC(CC)c1cc(NC2CCC(N)C2)n2nccc2n1 (stereo not given) + C=CC(=O)N1CCN(c2nc(OCC3CCCN3C)nc3c(F)c(-c4nc(N)cc(C)c4C(F)(F)F)c(Cl)cc23)C(C)C1 . Its IC50 was 1810

----------
# System: 186277-243-T-J2-PDC complex spheroids, viability
# Method description: Anticancer human tumor 186277-243-T-J2-PDC cell line growth inhibition [RAS];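 further: spheroids exposed to compounds for 7 days before viability read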
# Run conditions: second compound 0.003 µM; first compound 0.000949 µM; stronger effect = lower value
Property name: viability, T/C (%)
Give bare numbers, in %.

CC1(C)CCC(Nc2ncc(C(F)(F)F)c(-c3c[nH]c4c(P(C)(C)=O)c(C#N)ccc34)n2)CN1 (centres undefined) + CCn1c(-c2cccnc2C(C)OC)c2c3cc(ccc31)N1CCOC(CC(NC(=O)C(C(C)C)N(C)C(=O)C3(F)CCN(C(=O)C#CC(C)(C)N(C)C)CC3)C(=O)N3CCCC(N3)C(=O)OCC(C)(C)C2)C1: 100

// input: 3 compounds below; output: viability, T/C for each
1. CC1(C)CCC(Nc2ncc(C(F)(F)F)c(-c3c[nH]c4c(P(C)(C)=O)c(C#N)ccc34)n2)CN1 (centres undefined) + CCn1c(-c2cc(N3CCN(C)CC3)cnc2C(C)OC)c2c3cc(ccc31)-c1csc(n1)CC(NC(=O)C1CC1C)C(=O)N1CCCC(N1)C(=O)OCC(C)(C)C2
2. CCc1c2c(nc3ccc(O)cc13)-c1cc3c(c(=O)n1C2)COC(=O)[C@]3(O)CC + CCn1c(-c2cc(N3CCN(C)CC3)cnc2C(C)OC)c2c3cc(ccc31)-c1csc(n1)CC(NC(=O)C1CC1C)C(=O)N1CCCC(N1)C(=O)OCC(C)(C)C2
3. CCc1c2c(nc3ccc(O)cc13)-c1cc3c(c(=O)n1C2)COC(=O)[C@]3(O)CC + CCn1c(-c2cccnc2C(C)OC)c2c3cc(ccc31)N1CCOC(CC(NC(=O)C(C(C)C)N(C)C(=O)C3(F)CCN(C(=O)C#CC(C)(C)N(C)C)CC3)C(=O)N3CCCC(N3)C(=O)OCC(C)(C)C2)C1

Found:
1: 96.8; 2: 69.5; 3: 142

----------
# Tested on: 186277-243-T-J2-PDC complex spheroids, viability
# Method description: Anticancer human tumor 186277-243-T-J2-PDC cell line growth inhibition [RAS];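 further: spheroids exposed to compounds for 7 days before viability read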
# Run conditions: second compound 0.03 µM; first compound 1 µM; stronger effect = lower value
Can you tell me viability, T/C for the items I'm about to list?
Numbers only, in %.

CC(=O)OC12COC1CC(O)C1(C)C(=O)C(O)C3=C(C)C(OC(=O)C(O)C(NC(=O)OC(C)(C)C)c4ccccc4)CC(O)(C(OC(=O)c4ccccc4)C21)C3(C)C (stereo not given) + CCn1c(-c2cccnc2C(C)OC)c2c3cc(ccc31)N1CCOC(CC(NC(=O)C(C(C)C)N(C)C(=O)C3(F)CCN(C(=O)C#CC(C)(C)N(C)C)CC3)C(=O)N3CCCC(N3)C(=O)OCC(C)(C)C2)C1: 3.83
NC1c2ccccc2OC12CCN(c1cnc3c(N4CCCc5ncccc54)n[nH]c3n1)CC2 (stereo not given) + CCn1c(-c2cc(N3CCN(C)CC3)cnc2C(C)OC)c2c3cc(ccc31)-c1csc(n1)CC(NC(=O)C1CC1C)C(=O)N1CCCC(N1)C(=O)OCC(C)(C)C2: 1.79

// input: 7 molecules below; output: viability, T/C for each
1. O=C(c1ccc(F)c(F)c1Nc1ccc(I)cc1F)N1CC(O)([C@@H]2CCCCN2)C1 + CCn1c(-c2cccnc2C(C)OC)c2c3cc(ccc31)N1CCOC(CC(NC(=O)C(C(C)C)N(C)C(=O)C3(F)CCN(C(=O)C#CC(C)(C)N(C)C)CC3)C(=O)N3CCCC(N3)C(=O)OCC(C)(C)C2)C1
2. CCC(CC)c1cc(NC2CCC(N)C2)n2nccc2n1 (stereo not given) + CCn1c(-c2cccnc2C(C)OC)c2c3cc(ccc31)N1CCOC(CC(NC(=O)C(C(C)C)N(C)C(=O)C3(F)CCN(C(=O)C#CC(C)(C)N(C)C)CC3)C(=O)N3CCCC(N3)C(=O)OCC(C)(C)C2)C1
3. CCC(CC)c1cc(NC2CCC(N)C2)n2nccc2n1 (stereo not given) + CCn1c(-c2cc(N3CCN(C)CC3)cnc2C(C)OC)c2c3cc(ccc31)-c1csc(n1)CC(NC(=O)C1CC1C)C(=O)N1CCCC(N1)C(=O)OCC(C)(C)C2
4. NC1c2ccccc2OC12CCN(c1cnc3c(N4CCCc5ncccc54)n[nH]c3n1)CC2 (stereo not given) + CCn1c(-c2cccnc2C(C)OC)c2c3cc(ccc31)N1CCOC(CC(NC(=O)C(C(C)C)N(C)C(=O)C3(F)CCN(C(=O)C#CC(C)(C)N(C)C)CC3)C(=O)N3CCCC(N3)C(=O)OCC(C)(C)C2)C1
5. Nc1ccn(C2OC(CO)C(O)C2(F)F)c(=O)n1 (stereo not given) + CCn1c(-c2cc(N3CCN(C)CC3)cnc2C(C)OC)c2c3cc(ccc31)-c1csc(n1)CC(NC(=O)C1CC1C)C(=O)N1CCCC(N1)C(=O)OCC(C)(C)C2
6. Cc1nc(N2CCC3(CC2)COC(C)C3N)c(CO)nc1Sc1ccnc(N)c1Cl (stereo not given) + CCn1c(-c2cc(N3CCN(C)CC3)cnc2C(C)OC)c2c3cc(ccc31)-c1csc(n1)CC(NC(=O)C1CC1C)C(=O)N1CCCC(N1)C(=O)OCC(C)(C)C2
7. CC(Nc1ccc2c(c1)OCCn1cc(N3C(=O)OCC3C(F)F)nc1-2)C(N)=O (stereo not given) + CCn1c(-c2cc(N3CCN(C)CC3)cnc2C(C)OC)c2c3cc(ccc31)-c1csc(n1)CC(NC(=O)C1CC1C)C(=O)N1CCCC(N1)C(=O)OCC(C)(C)C2

Found:
1. 4.04
2. 113
3. 9.82
4. 114
5. 3.8
6. 3.62
7. 0.91

src = PubChem BioAssay AID2060908
